These measurements were taken from PubChem BioAssay AID179.

# Test system: CEM cells HIV-1 protection, formazan growth assay
# method-description: NCI AIDS Antiviral Assay
# recorded-conditions: measured here: growth of uninfected CEM cells
Criterion: IC50 strictly under 20 µM. Met: y. Not met: n.

Solved cases below.
O=S(=O)(O)CC(O)CNC(CO)(CO)CO (stereo unspecified)
n
CN(C)C1C(=O)C(C(=O)NCN2CCCC2)=C(O)C2(O)C(=O)C3=C(O)c4c(O)cccc4C(C)(O)C3CC12 (stereo unspecified)
n
CC1(CCCC2(C)CCNC2=O)OCCO1 (stereo unspecified)
n
CCCc1nc(N)nc(C(=O)Nc2cccc(C(F)(F)F)c2)c1CC
n
Cc1ccc(SSc2nnnn2C)cc1
y
N#CC(C(=O)/C(=N/N)C(C#N)c1ccccc1)c1ccccc1 (stereo unspecified)
n
CCOC(=O)/C(=N/Nc1ccc(C)cc1)N1C(=S)C=C(C)NN(C)C1=S
n
CC(C)=CCC[C@@H](C)C1=C(O)C(Nc2ccccc2Br)=C(C)C(=O)C1=O
y

Q: For this molecule, is IC50 lower than 20 µM? C[s+]1c2ccccc2c2ccccc21
Result: y

Q: For this molecule, is IC50 lower than 20 µM? COc1ccc(-c2cc(-c3ccccc3)nc3c2CC(=O)Nc2ccccc2-3)cc1OC
Result: y
